target-desc: T1, natriuretic peptide receptor-B (human)
T1 chain: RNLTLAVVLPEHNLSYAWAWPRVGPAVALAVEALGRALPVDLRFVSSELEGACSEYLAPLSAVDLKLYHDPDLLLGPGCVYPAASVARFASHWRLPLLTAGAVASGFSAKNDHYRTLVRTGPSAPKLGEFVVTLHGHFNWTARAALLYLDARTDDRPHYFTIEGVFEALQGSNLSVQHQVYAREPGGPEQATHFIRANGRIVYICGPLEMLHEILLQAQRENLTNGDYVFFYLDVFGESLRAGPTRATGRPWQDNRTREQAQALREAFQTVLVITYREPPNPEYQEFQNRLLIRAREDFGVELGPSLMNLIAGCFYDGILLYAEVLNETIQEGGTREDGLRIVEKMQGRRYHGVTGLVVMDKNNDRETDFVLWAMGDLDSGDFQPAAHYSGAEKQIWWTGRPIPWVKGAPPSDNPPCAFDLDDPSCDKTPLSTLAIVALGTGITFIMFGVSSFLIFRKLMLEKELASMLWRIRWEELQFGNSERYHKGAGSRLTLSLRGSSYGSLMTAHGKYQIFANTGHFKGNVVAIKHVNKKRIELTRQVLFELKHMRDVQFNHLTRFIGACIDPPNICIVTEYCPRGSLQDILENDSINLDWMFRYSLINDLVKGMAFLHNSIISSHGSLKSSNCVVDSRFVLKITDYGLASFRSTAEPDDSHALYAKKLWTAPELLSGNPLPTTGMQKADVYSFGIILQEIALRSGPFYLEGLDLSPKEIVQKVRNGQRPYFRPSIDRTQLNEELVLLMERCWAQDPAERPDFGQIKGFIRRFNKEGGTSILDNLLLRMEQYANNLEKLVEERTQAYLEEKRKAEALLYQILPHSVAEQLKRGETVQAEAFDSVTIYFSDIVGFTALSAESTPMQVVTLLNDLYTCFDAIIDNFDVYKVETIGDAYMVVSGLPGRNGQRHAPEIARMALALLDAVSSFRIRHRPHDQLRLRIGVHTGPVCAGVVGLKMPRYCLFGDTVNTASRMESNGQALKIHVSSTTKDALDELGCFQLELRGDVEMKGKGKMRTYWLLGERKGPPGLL
protocol-text: cell-based or functional assay
Numbered stars: 1 amine (or outer) side, 2 acyl side, 3 side chain; on linkers, the order of the positions; unused ones are H or OH. Square brackets hold non-standard residues; d marks the D form. Ends that are not written are not given here. Sni = (S)-nipecotic acid, O=C([C@H]1CCCN([*:1])C1)[*:2]; Hyp = O=C(O)[C@@H]1C[C@@H](O)CN1; Aoc(2) = CCCCCC[C@H](N)C(=O)O; NMeL = CN[C@@H](CC(C)C)C(=O)O; 1888 = not defined here; Che = not defined here; Occ = octanoic acid
endpoint-label: EC50 group, cGMP in GTM-3 cells

The reported EC50 group, cGMP in GTM-3 cells of the binder 1888-[Aoc(2)][Sni]FLL[Hyp][NMeL]DRI-NH2 (not fully specified (some residues); printed as (1888)-Hgl-Sni-Phe-leu-Leu-Hyp-Nml-Asp-Arg-Ile-NH2; reading uncertain) [JAL-1806] was ≤ 5 µM

Note to self: EC50 group, cGMP in GTM-3 cells recorded for [Occ][Sni]FLL[Hyp][NMeL]D[Apc(Gly)][Che] (not fully specified (residue 4); printed as Occ-Sni-Phe-leu-Leu-Hyp-Nml-Asp-Apc(Gly)-Che; reading uncertain) [JAL-1687] was ≤ 5 µM

Data origin: patent US9187525B2
